These data points were gathered from PubChem BioAssay AID1159580.

Experiment: chemical genetic growth profiling, strain panel (AID 1159580);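 note: tested at 20 µM; growth read once vehicle control cultures reached saturation at 30 °C; 1 = growth at the plate median or of vehicle wells; lower values mean less growth of the strain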
Settings: S. cerevisiae deletion strains, growth OD, locus YNR049C, strain mso1, hits give low values
Hit rate of the full screen: of about 5,500 compounds, about 2,000 (36%) were called active. Inconclusive results (about 18%) are left out. This is one part of the list.
normalized growth: recorded values
Please give only the number in your answer, with no unit.

The examples below pair each entry with its known result.
O=c1c(-c2cc(O)c(O)c(O)c2)coc2cc(O)c(O)c(O)c12 | 1.01
O=c1[nH]c2cc(Cl)c(Cl)cc2[nH]c1=O | 0.992
CC(=O)Oc1ccc(-c2cc(=O)c3c(OC(C)=O)cc(OC(C)=O)cc3o2)cc1 | 0.953
O=C(O)c1nc2cc(Cl)c(Cl)cc2[nH]c1=O | 1.01
COc1ccc(-c2cc(=O)c3cc(OC)ccc3o2)cc1 | 0.937

Here is the next item to consider.
query: Given the compound O=C1CCc2cc(OCCCCc3nnnn3C3CCCCC3)ccc2N1 , what is its reported normalized growth?
result: 0.998

###

Assay: chemical genetic growth profiling, strain panel (AID 1159580);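 note: tested at 20 µM; growth read once vehicle control cultures reached saturation at 30 °C; 1 = growth at the plate median or of vehicle wells; lower values mean less growth of the strain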
Settings: S. cerevisiae deletion strains, growth OD, locus YNL224C, strain SQS1
Screen size: about 5,500 compounds; about 2,000 (36%) were called active. Not shown: some 18% with an inconclusive outcome. Cut-off read from the data, not from the text of the source: active = normalized growth mostly below about 0.91 (no sharp cut-off); inconclusive = no clear call, values can overlap the other calls; inactive = mostly above about 0.92. The list shows a part of the results.
Please answer using one outcome listed in class 1 (active), class 0 (inactive)

Sample answers from the record:
CC1(NCC(O)COc2cccc3[nH]ccc23)CCC(C(C)(C)NC(=O)CBr)CC1 (stereo unspecified) | class 0
CSc1ccc2c(c1)C(N1CCN(C)CC1)Cc1ccccc1S2 (stereo unspecified) | class 0
CN1CCC23CCCC[C@H]2C1Cc1ccc(O)cc13 (stereo partly specified) | class 0
NCCc1ccc(O)cc1 | class 0
Cn1c(=O)c2[nH]c(C3CCCC3)nc2n(C)c1=O | class 0

query: What call does the record list for NCCc1c[nH]c2ccc(O)cc12 ?
result: class 0

query: Then what about the molecule Cc1nc2c(OCc3ccccc3)cccn2c1CC#N ?
result: class 0

query: Then what about the molecule C=CCc1ccccc1OCC(O)CN[C@]1(C)CCC[C@H](C(C)(C)NC(=O)CBr)C1 (stereo partly specified) ?
result: class 0

query: Then what about the molecule C=CCc1ccccc1OCC(O)CNC(C)C (stereo unspecified) ?
result: class 0

query: Then what about the molecule C[n+]1cc2c3c(ccc2c2ccc4cc5c(cc4c21)OCO5)OCO3 ?
result: class 1

query: Then what about the molecule CNCCc1c[nH]c2ccc(O)cc12 ?
result: class 0

###

Assay: chemical genetic growth profiling, strain panel (AID 1159580);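 note: tested at 20 µM; growth read once vehicle control cultures reached saturation at 30 °C; 1 = growth at the plate median or of vehicle wells; lower values mean less growth of the strain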
Details: S. cerevisiae deletion strains, growth OD, locus YKL048C, strain ELM1, hits give low values
The whole screen tested about 5,500 compounds, of which about 2,000 (36%) were called active. About 18% were inconclusive and are not listed. This is one part of the list.
Measured Property: normalized growth

The examples below pair each entry with its known result.
CC(C)(C)c1csc(NNC(=O)c2ccc(Cl)cc2)n1 | 0.892 (inactive)
O=C1Nc2ccccc2/C1=N/N=C\c1ccccc1Cl | 0.901 (inactive)

query: Given the compound CC(O)(CNCc1ccc(Cl)cc1)CSc1ccccc1Cl (stereo not drawn) , what is its reported normalized growth?
result: 0.98 (inactive)

query: Then what about the compound N/C(CSc1ccc(Cl)cc1)=N/OC(=O)c1ccc(C(F)(F)F)cc1 ?
result: 0.953 (inactive)

query: Then what about the compound CC(C)CSc1nnc(CSCc2nc(-c3ccc(Cl)cc3)cs2)n1C ?
result: 0.954 (inactive)

query: Then what about the compound Clc1ccc(-c2csc(Nc3ccccc3)n2)s1 ?
result: 0.771 (active)

query: Then what about the compound CC(C)(C)c1cc2nc(C(F)(F)F)cc(NNC(=O)c3ccc(Cl)cc3)n2n1 ?
result: 0.986 (inactive)
